# Tested on: human neutrophils
# ASSAY INFO: Lysis of human neutrophils (release of lactate dehydrogenase)
# Assay type: cell-based
# Design: key: x: reduced activity; xx: strongly reduced activity
# EXPERIMENTAL CONDITIONS: pro-inflammatory activity of PSMα3 mutants, relative to wild type PSMα3
No end group written: not given here. *: point of attachment. For = O=C*

# SUBSTANCE, Neutrophil lysis
measured = [
    ("fMEFVAKLFKFFKDLLGAFLGNN [#15]", "xx"),
    ("fMEFVAALFKFFKDLLGKFLGNN (For-MEFVAALFKFFKDLLGKFLGNN; listed as Staphylococcus aureus) [#4]", "xx"),
    ("MEFVAKLFKFFKDLLGKFLGNN [PSMα3, no formyl]", "x"),
    ("fMEFVAKLFKFFKDLLGKFLGNA [#20]", "x"),
    ("fMEFVAKLFKFFKDLLGKFLGAN [#19]", "xx"),
    ("fMEFVAKAFKFFKDLLGKFLGNN (For-MEFVAKAFKFFKDLLGKFLGNN; listed as Staphylococcus aureus) [#5]", "xx"),
    ("fMEFVAKLFKFFADLLGKFLGNN (For-MEFVAKLFKFFADLLGKFLGNN; listed as Staphylococcus aureus) [#10]", "x"),
    ("fMAFVAKLFKFFKDLLGKFLGNN [#1]", "xx"),
]
